Ref: PubChem BioAssay AID1963964

- Tested on: 997726-040-R-J2-PDC tumor spheroids, viability;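 further: spheroids exposed to compounds for seven days before readout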
- MEASUREMENT_NOTES: Anticancer human tumor 997726-040-R-J2-PDC patient-derived squamous cell lung carcinoma cell line growth inhibition [PI3K]
- EXPERIMENTAL_CONDITIONS: second compound 1 µM; first compound 0.1 µM; active compounds read low; spheroids with HUVEC and MSC

COMPOUND | TARGET_ENTITY | RESULT_UNIT | viability, T/C
CC(=O)c1c(C)c2cnc(Nc3ccc(N4CCNCC4)cn3)nc2n(C2CCCC2)c1=O + COc1c(OCCCN2CCOCC2)ccc2c3n(c(=NC(=O)c4cnc(N)nc4)nc12)CCN3 | 997726-040-R-J2-PDC tumor spheroids, viability | % | 1.06
CC(C)NCC(C(=O)N1CCN(c2ncnc3c2C(C)CC3O)CC1)c1ccc(Cl)cc1 (stereo not given) + COc1c(OCCCN2CCOCC2)ccc2c3n(c(=NC(=O)c4cnc(N)nc4)nc12)CCN3 | 997726-040-R-J2-PDC tumor spheroids, viability | % | 1.32
CC(C)NCC(C(=O)N1CCN(c2ncnc3c2C(C)CC3O)CC1)c1ccc(Cl)cc1 (stereo not given) + Cc1nc(NC(=O)N2CCCC2C(N)=O)sc1-c1ccnc(C(C)(C)C(F)(F)F)c1 | 997726-040-R-J2-PDC tumor spheroids, viability | % | 37.2
CNC(=O)c1ccc(N2C(=S)N(c3ccc(C#N)c(C(F)(F)F)c3)C(=O)C2(C)C)cc1F + CC(Nc1ncnc2nc[nH]c12)c1cc2cccc(Cl)c2c(=O)n1-c1ccccc1 | 997726-040-R-J2-PDC tumor spheroids, viability | % | 86.6
CCCS(=O)(=O)Nc1ccc(F)c(C(=O)c2c[nH]c3ncc(-c4ccc(Cl)cc4)cc23)c1F + Cc1nc(NC(=O)N2CCCC2C(N)=O)sc1-c1ccnc(C(C)(C)C(F)(F)F)c1 | 997726-040-R-J2-PDC tumor spheroids, viability | % | 40.5
